molecular target: Cytochrome P450 2C9 (Homo sapiens); test: Cytochrome panel assay with activity outcomes; details: recombinant CYP, pro-luciferin dealkylation, luminescence, p450-cyp2c9; series mostly up to 57.1 µM
The whole screen tested about 16,000 compounds, of which about 4,000 (25%) were called active. Another 26% or so got no clear call; they are omitted. Calls follow the shape of the dose curve; as a rule, active = well fitted curve in the direction sought with a large enough effect; inconclusive = small, poorly fitted or top-dose-only effect, or effect the other way; inactive = no such curve, though single readings can be large or run the other way. Not all results are given here. Square brackets hold non-standard residues; d marks the D form. Peptide text beside a SMILES is read from it.
In this exercise, the only acceptable responses are 1.0 (active), 0.0 (inactive)

Ask: Per the records of this test, what outcome belongs to O=S(=O)(c1ccccc1)N1CCC2(CCCN(c3cccc(-c4ccccc4)c3)C2)CC1 ?
Reply: 0.0

Ask: Status in this test for C=C1CC[C@H](O)C/C1=C/C=C1\CCC[C@]2(C)[C@H]1CC[C@H]2[C@@H](C)/C=C\[C@@H](C)C(C)C ?
Reply: 0.0

Ask: Check the results log: what was the call for NCCCC(=O)O ?
Reply: 0.0

Ask: Kindly provide the recorded test outcome for the following molecule: C=CCN1CCN(c2nc3ccccc3nc2C#N)CC1
Reply: 1.0

Ask: Check the results log: what was the call for COc1cccc2c1C(=O)c1c(O)c3c(c(O)c1C2=O)C[C@](O)(C(=O)CO)C[C@H]3O[C@@H]1C[C@H](N)[C@H](O)[C@H](C)O1 ?
Reply: 0.0

Ask: Answer briefly: the call reported for O=S(=O)(c1ccccc1)N1CCC2(CCN(c3ncccn3)CC2)CC1 in this assay.
Reply: 0.0

Ask: Which result was noted for this molecule in the test: O=C(Nc1ccc2c(c1)OCCO2)c1cc2sccc2n1Cc1ccc(F)cc1
Reply: 1.0

Ask: State the result this test recorded for CSCC[C@H](C=O)NC(=O)[C@H](CC(C)C)NC(=O)[C@H](CC(C)C)NC(C)=O (Ac-Leu-Leu-[dM]-aldehyde) .
Reply: 0.0

Ask: What did this assay record as the result for CC(=O)O[C@@H](C)C[N+](C)(C)C ?
Reply: 0.0

Ask: What call does the record list for CN1CCCC2(CCN(S(=O)(=O)c3ccccc3)CC2)C1 ?
Reply: 0.0

Ask: Look up the recorded call for O=c1c2cnn(-c3ccccc3)c2nnn1/N=C/c1cccnc1 in this test.
Reply: 0.0

###

biological target: Cytochrome P450 2C9 (Homo sapiens) (UniProt P11712); assay: Cytochrome panel assay with activity outcomes; conditions: recombinant CYP, pro-luciferin dealkylation, luminescence, p450-cyp2c9; series mostly up to 57.1 µM
Sequence (P11712 whole entry, looked up): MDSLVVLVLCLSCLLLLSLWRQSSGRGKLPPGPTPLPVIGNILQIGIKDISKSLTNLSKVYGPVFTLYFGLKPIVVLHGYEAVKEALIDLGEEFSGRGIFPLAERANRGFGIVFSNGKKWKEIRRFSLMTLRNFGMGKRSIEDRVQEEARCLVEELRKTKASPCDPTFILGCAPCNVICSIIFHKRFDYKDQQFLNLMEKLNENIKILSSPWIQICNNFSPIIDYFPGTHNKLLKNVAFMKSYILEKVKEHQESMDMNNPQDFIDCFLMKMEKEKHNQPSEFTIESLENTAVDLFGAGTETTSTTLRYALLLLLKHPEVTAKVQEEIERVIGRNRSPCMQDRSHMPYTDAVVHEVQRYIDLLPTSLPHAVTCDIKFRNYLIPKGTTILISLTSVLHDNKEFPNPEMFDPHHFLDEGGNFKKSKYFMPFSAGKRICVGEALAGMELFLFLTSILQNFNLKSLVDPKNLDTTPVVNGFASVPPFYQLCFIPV
Hit rate of the full screen: of about 16,000 compounds, about 4,000 (25%) were called active. Not shown: some 26% with an inconclusive outcome. The call rests on the fitted dose curve; in most records, active means well fitted curve in the direction sought with a large enough effect; inconclusive means small, poorly fitted or top-dose-only effect, or effect the other way; inactive means no such curve, though single readings can be large or run the other way. Only a sample is shown.
Pick one: active, inactive

Ask: Dear colleague, could you share the recorded outcome for COc1cccc(C(C(=O)Nc2ccc(F)cc2)N(C(=O)Cn2nnc3ccccc32)C2CC2)c1 (stereo not drawn) when you have a moment?
Reply: active

Ask: Check the results log: what was the call for COc1ccc(C(C(=O)Nc2ccc(F)cc2)N(C(=O)Cn2nnc3ccccc32)C2CC2)cc1 (stereo not drawn) ?
Reply: active

Ask: // param item: O=P(Cc1cc[n+]([O-])cc1)(c1ccccc1)c1ccccc1 ; yields the recorded call
Reply: inactive

Ask: Tell me the recorded outcome of this test for Clc1ccc(-c2nc3ncccn3c2Nc2ccc3c(c2)OCCO3)cc1 .
Reply: active

Ask: Outcome? COc1ccc(OC)c(NC(=O)[C@H]2CC=CC[C@H]2C(=O)O)c1
Reply: inactive

Ask: Look up the recorded call for O=C(NNS(=O)(=O)c1ccc(Cl)cc1)c1cnn(-c2ccccc2)c1-n1cccc1 in this test.
Reply: active

Ask: What did this assay record as the result for O=C(NCc1ccccc1)c1cccc(COc2cccc(Cl)c2)c1 ?
Reply: active

Ask: Entry Cc1ccc(C(=O)N/N=C/c2ccc([N+](=O)[O-])s2)cc1 : call = ?
Reply: inactive

Ask: Hi team, can someone confirm the assay call for COc1ccc2c(c1OC)C(=O)OC2Nc1ncccc1C (stereo not drawn) ?
Reply: inactive

Ask: What did this assay record as the result for CCOc1ccc(NC(=O)N2CCC(C(N)=O)(N3CCCCC3)CC2)cc1 ?
Reply: inactive

Ask: What did the test return for COc1cccc(/C(O)=C2/C(=O)C(=O)N(Cc3cccnc3)C2c2ccco2)c1 (stereo not drawn) ?
Reply: active

Ask: Hi, do you know how CCC(c1nnnn1CC1CCCO1)N(CCN1CCOCC1)Cc1cc2cc(C)ccc2[nH]c1=O (stereo not drawn) came out in this test?
Reply: inactive

Ask: Per the assay record, what outcome was assigned to Cc1cc(C)c(S(=O)(=O)Nc2cccc(C(F)(F)F)c2)c(C)c1 ?
Reply: inactive

Ask: For O=C(OCCNC(=O)c1ccc2ccccc2n1)c1ccc(F)cc1 , which call appears in the assay record?
Reply: active

Ask: Look up the recorded call for Cc1cccc(NS(=O)(=O)c2c(C)n[nH]c2C)c1 in this test.
Reply: active

Ask: I would be grateful if you could indicate the recorded call for Nc1nc(Cl)nc2c1ncn2[C@@H]1O[C@@H](CO)[C@@H](O)[C@H]1O .
Reply: inactive

Ask: Identify the outcome logged in this assay for the molecule shown: CCCCNc1ccc(C(=O)OCCOCCOCCOCCOCCOCCOCCOCCOCCOC)cc1
Reply: inactive

Ask: Could you kindly confirm the outcome this assay logged for COc1ccc(C2C(C(=O)c3ccco3)=C(O)C(=O)N2Cc2cccnc2)cc1OC (stereo not drawn) ?
Reply: inactive

Ask: # outcome recorded in this test, key = O=C(NCCOC12CC3CC(CC(C3)C1)C2)c1cccc(Br)c1
Reply: active

Ask: Give the logged outcome of this assay for the following molecule: CCOC(=O)Nc1ccc(C(=O)Oc2ccccc2)c(O)c1
Reply: active

Ask: GET /call?item= CCOc1cccc(OCCCNCCCOC)c1 returns the recorded outcome of this test.
Reply: inactive

Ask: Identify the outcome logged in this assay for the molecule shown: COc1cccc(/C=N/NC(=O)c2cccc([N+](=O)[O-])c2)c1OS(=O)(=O)c1ccc(C)cc1
Reply: active

Ask: Which outcome did this test record for the molecule Cc1[nH]n2c(=O)c3c(nc2c1-c1cccc2ccccc12)CCC3 ?
Reply: active

Ask: Give the logged outcome of this assay for the following molecule: Nc1nc(Nc2ccccc2)nc2c1ncn2[C@@H]1O[C@@H](CO)[C@H](O)[C@H]1O
Reply: active

Ask: Hi team, can someone confirm the assay call for CN1CCN(c2ncc3nc(-c4cccs4)c(=O)n(C[C@H]4CCCO4)c3n2)CC1 ?
Reply: inactive

Ask: Which outcome did this test record for the molecule COc1ccc(-c2nc3cnc(OC)nc3n(-c3ccc(OC)cc3)c2=O)cc1 ?
Reply: inactive

Ask: Which outcome did this test record for the molecule CC(C)(C)NC[C@H](O)COc1cccc2c1CCC(=O)N2 ?
Reply: inactive

Ask: What outcome does the record of this test show for O=C(N/N=C/c1ccco1)/C(=C/c1cccc([N+](=O)[O-])c1)NC(=O)c1ccccc1 ?
Reply: inactive

Ask: Test call for this molecule, please: COCCNC(=O)C(c1ccc(C)o1)N(CC1CCCO1)C(=O)Cn1nnc2ccccc21 (stereo not drawn)
Reply: inactive

Ask: Which outcome was entered for the molecule Clc1ccc2c(c1)C(c1cccs1)=NNC(c1cccnc1)=N2 in this test?
Reply: active

Ask: # lookup: test call for COc1ccc(N(CC(=O)Nc2cccc(C)c2)S(=O)(=O)c2c(C)n[nH]c2C)cc1
Reply: active

Ask: Would you mind telling me which call this test gave CC(C)(C)CNC(CO)C12CC3CC(CC(C3)C1)C2 (stereo not drawn) ?
Reply: inactive

Ask: Each molecule tested received a call. Report the one for NCCNC(=O)c1ncsc1-c1cccc(F)c1 .
Reply: inactive

###

target: Cytochrome P450 2C9 (Homo sapiens); experiment: Cytochrome panel assay with activity outcomes; conditions: recombinant CYP, pro-luciferin dealkylation, luminescence, p450-cyp2c9; series mostly up to 57.1 µM
Hit rate of the full screen: of about 16,000 compounds, about 4,000 (25%) were called active. Roughly 26% stayed inconclusive and do not appear here. The call rests on the fitted dose curve; in most records, active means well fitted curve in the direction sought with a large enough effect; inconclusive means small, poorly fitted or top-dose-only effect, or effect the other way; inactive means no such curve, though single readings can be large or run the other way. Only a sample is shown.
Hi there, use one of these labels in your reply, thanks! active, inactive

Ask: Tell me the assay call for Nc1ccc(Sc2cnn(-c3ccccc3)c(=O)c2Cl)cc1 please.
Reply: active

Ask: Fill in: this test's call for N#Cc1c(N2CCCCC2)nc(N)c2c(N)nc3c(c12)CC(c1ccccc1)O3 (stereo not given) is ___
Reply: active

Ask: Could you kindly confirm the outcome this assay logged for CCOC(=O)CSc1cc(=O)n(C)c2cc(Cl)ccc12 ?
Reply: active

Ask: For CCOC(=O)CC(NC(=O)c1ccc(C)cc1)c1ccc(C)cc1 (stereo not given) , what call appears in the results of this test?
Reply: active

Ask: Give the logged outcome of this assay for the following molecule: Cn1c(=O)c2[nH]c(-c3ccc(S(=O)(=O)O)cc3)nc2n(C)c1=O
Reply: inactive

###

target: Cytochrome P450 2C9 (Homo sapiens); assay: Cytochrome panel assay with activity outcomes; settings: recombinant CYP, pro-luciferin dealkylation, luminescence, p450-cyp2c9; series mostly up to 57.1 µM
The whole screen tested about 16,000 compounds, of which about 4,000 (25%) were called active. Not shown: some 26% with an inconclusive outcome. These entries were drawn from the full list.
READOUT_TYPE: AC50

SMILES_ENTRY	AC50
COCCn1c(=O)c(-c2cn(C)c3ccccc23)nc2cnc(N3CCNCC3)nc21	inactive
Cc1ccccc1OCC(=O)Nc1ccc(N2CCN(C(=O)C(C)C)CC2)c(Cl)c1	3.98 µM (active)
O=c1c(-c2cccc(Cl)c2)nc2cncnc2n1Cc1ccccc1	1.26 µM (active)
O=c1c(-c2cccc(F)c2)nc2cncnc2n1C1CC1	inactive
C[C@@H](Cc1ccccc1)Nc1ncnc2c1ncn2[C@@H]1O[C@@H](CO)[C@H](O)[C@@H]1O	inactive

Reported AC50 for C/C(=N\Nc1ccc([N+](=O)[O-])cc1)c1cccc(N)c1 was 5.62 µM (active)

This collection of values is drawn from PubChem BioAssay AID1851.
